target: human serum albumin (human) (UniProt P02768); assay: ELISA, negative control HSA
Sequence (P02768 25-609 limits assumed): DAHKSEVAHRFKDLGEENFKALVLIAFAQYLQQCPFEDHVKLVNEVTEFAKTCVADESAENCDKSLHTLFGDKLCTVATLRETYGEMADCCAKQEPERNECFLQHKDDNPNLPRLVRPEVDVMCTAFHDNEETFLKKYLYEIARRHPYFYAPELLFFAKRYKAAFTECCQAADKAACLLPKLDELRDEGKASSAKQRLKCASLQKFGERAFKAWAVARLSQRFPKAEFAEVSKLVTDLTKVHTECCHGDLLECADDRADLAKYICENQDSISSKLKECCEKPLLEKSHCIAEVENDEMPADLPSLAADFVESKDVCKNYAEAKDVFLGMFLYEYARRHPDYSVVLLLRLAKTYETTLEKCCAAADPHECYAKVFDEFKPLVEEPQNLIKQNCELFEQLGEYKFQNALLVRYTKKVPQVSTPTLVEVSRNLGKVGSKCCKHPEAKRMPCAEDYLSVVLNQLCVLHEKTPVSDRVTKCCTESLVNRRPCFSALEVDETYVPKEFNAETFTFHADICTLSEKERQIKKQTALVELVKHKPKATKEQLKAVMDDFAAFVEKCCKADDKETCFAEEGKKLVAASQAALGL
Please respond with reported ELISA HSA (RLU) for every item in the list.
All answers are understood in RLU, so give the number only.

Please fill in: ELISA HSA (RLU) reported for ISOP193FR9P1G11 (designed binder, not shown: small tags and cut ends) LPAPKNLVVSRVTEDSARLSWTAPDAAFDSFTIYYFENENGGEAIVLTVPGSERSYDLTGLKPGTEYLVTIYGVKGCDWSDPLSAIFTT = 11000

Please fill in: ELISA HSA (RLU) reported for ISOP193FR9P1H6 (designed binder, not shown: small tags and cut ends) LPAPKNLVVSRVTEDSARLSWTAPDAAFDSFDINYFEQPKGGEAIVLTVPGSERSYDLTGLKPGTEYLVTIYGVKGCDWSDPLSAIFTT = 23000

Please fill in: ELISA HSA (RLU) reported for ISOP193FR9P1G8 (designed binder, not shown: small tags and cut ends) LPAPKNLVVSRVTEDSARLSWTAPDAAFDSFEIYYFENELGGEAIVLTVPGSERSYDLTGLKPGTEYLVTIYGVKGCDWSDPLSAIFTT = 5040

Please fill in: ELISA HSA (RLU) reported for ISOP193HR9P1B11 (designed binder, not shown: small tags and cut ends) LPAPKNLVVSRVTEDSARLSWTAPDAAFDSFEIYYFELRLGGEAIVLTVPGSERSYDLTGLKPGTEYLVTIYGVKGCGYSDPLSAIFTT = 4080

Please fill in: ELISA HSA (RLU) reported for ISOP193FR9P1C9 (designed binder, not shown: small tags and cut ends) LPAPKNLVVSRVTEDSARLSWTAPDAAFDSFQIYYFEWVVGGEAIVLTVPGSERSYDLTGLKPGTEYLVTIYGVKGCDWSDPLSAIFTT = 4000

Please fill in: ELISA HSA (RLU) reported for ISOP193FR9P1C1 (designed binder, not shown: small tags and cut ends) LPAPKNLVVSRVTEDSARLSWTAPDAAFDSFEIYYFENENGGEAIVLTVPGSERSYDLTGLKPGTEYLVTIYGVKGCDWSDPLSAIFTT = 8160
